I'd be grateful if you could share measured Percent Effect for these entries.
Test system: Wolbachia pipientis
protocol.text: Anti-Wolbachia Cell-Based Screen
Format: functional
Parameters: scale not given: in the data most compounds retested in dose-response had high values
measurement.conditions: 5 µM
Screen size: about 48,000 compounds; about 13,000 (27%) showed an effect of 50% or more. The list shows a part of the results.
Answers are plain numbers, in %.

Examples with their reported Percent Effect follow.
molecule	target	Percent Effect / %
CCCc1cc(C(=O)N2CCC3(CCCN(CCOC)C3=O)C2)cs1 (stereo not drawn)	Wolbachia pipientis	13.33
COC(=O)c1sccc1S(=O)(=O)N1CCC(Oc2cccnn2)CC1	Wolbachia pipientis	13.23

List the reported Percent Effect of each molecule below.
1. CNS(=O)(=O)c1cccc(C(C)NCc2ccc(F)cc2F)c1 (stereo not drawn)
2. Cn1ccc(NC(=O)CN2CCC(Oc3cnccn3)CC2)n1

A)
[0.5272, 107.4]

Each molecule below has a reported value. Please supply its Percent Effect.
1. CCCc1cc(C(=O)N2CCC3(CCCN(CCO)C3=O)C2)cs1 (stereo not drawn)
2. Cc1cc(C(=O)N2CCNC(c3ccccc3)C2)c2ccc(F)cc2n1 (stereo not drawn)
3. O=C(Cn1cccn1)N1CCC(Oc2cnccn2)CC1
4. COCCC(=O)NCCCOC1CCCc2ccccc21 (stereo not drawn)
5. O=C(c1ccc[nH]1)N1CC2(CCN(c3nccs3)C2)C1

A)
1. -0.6433
2. 81.03
3. 4.434
4. 3.193
5. -14.28

For each listed entry, give its Percent Effect.
1. CCn1c(C)nnc1CN(C)C1CCN(CCCOC)C1 (stereo not drawn)
2. CCc1cc(C(=O)N2CCC3(CCCN(CC4CC4)C3=O)C2)cs1 (stereo not drawn)
3. Cc1csc(CNc2cnn(C(C)C)c2)n1
4. CCc1n[nH]c(C(=O)N2CCC3(CCCN(CCOC)C3=O)C2)c1C (stereo not drawn)

A)
0.6511
55.55
2.502
116.4
